Recorded IC50, one value per entry.
Tested on: HeLa
Measurement Notes: Antiproliferative activity against human HeLa cells after 48 hrs by MTT assay
Assay type: functional, cell-based
Unit µM implied. Number only.

Consider the worked cases shown below.
> print(dat)
                               input.smiles  measure.name  result.units  observed.result
1  COC1=C(CCc2ccc(OC)cc2)C(=O)c2c(OC)cc(OC)cc2C1=O          IC50            µM               35
2     CCCCC1=C(OC)C(=O)c2cc(OC)cc(OC)c2C1=O          IC50            µM             52.4

From here, focus on the item given below.
Request: Tell me the measured IC50 of `COc1cc(OC)c2c(c1)C(=O)C(O)=C(C)C2=O` , please.
Response: 90.2

* * *

Quick list: IC50 per entry.
System: NCI-H460
Measurement Notes: Antiproliferative activity against human NCI-H460 cells after 48 by hrs MTT assay
Assay type: functional, cell-based

// solved cases for IC50 follow
> print(dat)
                               input.smiles  assay.system  observed.result
1      CCCCC1=C(O)C(=O)c2cc(OC)cc(OC)c2C1=O      NCI-H460         > 100 µM
2  COc1cc(OC)c2c(c1)C(=O)C(O)=C(CCc1ccc(N(CCCl)CCCl)cc1)C2=O      NCI-H460         > 100 µM
3  COc1ccc(CCC2=C(O)C(=O)c3cc(OC)cc(OC)c3C2=O)cc1      NCI-H460          97.5 µM

Request: // IC50 lookup, key: `COc1cc(OC)c2c(c1)C(=O)C(O)=C(CCc1ccc(Br)cc1)C2=O`
Response: > 100 µM

Request: Any idea what IC50 was measured for `COc1cc(OC)c2c(c1)C(=O)C(O)=C(CCC1CCCCC1)C2=O` ?
Response: 86.2 µM

Request: Data request, read-out IC50, for `COc1cc(OC)c2c(c1)C(=O)C(O)=C(CCc1ccccc1)C2=O`
Response: > 100 µM

Request: What measured IC50 goes with `COc1cc(OC)c2c(c1)C(=O)C(O)=CC2=O` ?
Response: > 100 µM

Request: IC50 lookup needed for `COC1=C(CCc2ccc(OC)cc2)C(=O)c2c(OC)cc(OC)cc2C1=O` , thanks.
Response: 37.1 µM

Request: Data request, read-out IC50, for `CCCCCCCCCCC1=C(O)C(=O)c2cc(OC)cc(OC)c2C1=O`
Response: > 100 µM

* * *

Test system: A549
Measurement Notes: Antiproliferative activity against human A549 cells after 48 hrs by MTT assay
Format: functional, cell-based
Measurement Parameters: A549, 48 h
pIC50: −log10 of the molar value.
In this section, each of the compounds is paired with its reported pIC50.

> print(dat)
                               input.smiles  measure.name  observed.result
1       COc1cc(OC)c2c(c1)C(=O)C(O)=C(C)C2=O         pIC50           < 4.00
2  COc1cc(OC)c2c(c1)C(=O)C(O)=C(CCc1ccc(Br)cc1)C2=O         pIC50           < 4.00

Request: # pIC50 lookup, item `CCCC1=C(O)C(=O)c2cc(OC)cc(OC)c2C1=O`
Response: 4.10

Request: # pIC50 lookup, item `CCCCCCCCC1=C(O)C(=O)c2cc(OC)cc(OC)c2C1=O`
Response: < 4.00

Request: Any idea what its pIC50 is? The compound is `COC1=C(CCc2ccc(OC)cc2)C(=O)c2c(OC)cc(OC)cc2C1=O`
Response: < 4.00

Request: Which pIC50 value belongs to `CCCCC1=C(O)C(=O)c2cc(OC)cc(OC)c2C1=O` ?
Response: 4.18

Request: Entry `COc1cc(OC)c2c(c1)C(=O)C(O)=C(CCC1CCCCC1)C2=O` : reported pIC50 = ?
Response: 4.11

Request: I am curious: what pIC50 value has been reported for `COC1=C(CCC2CCCCC2)C(=O)c2c(OC)cc(OC)cc2C1=O` ?
Response: < 4.00

Request: Would you kindly share the measured pIC50 for `COc1ccc(CCC2=C(Cl)C(=O)c3cc(OC)cc(OC)c3C2=O)cc1` ?
Response: 4.08

Request: // query pIC50 value for entry `CCCCC1=C(OC)C(=O)c2cc(OC)cc(OC)c2C1=O`
Response: < 4.00

Request: # get_value(readout='pIC50', item= `COc1cc(OC)c2c(c1)C(=O)C(O)=C(CCc1ccc(N(CCCl)CCCl)cc1)C2=O` )
Response: < 4.00
